- Subject Of Test: human V1a receptor (Homo sapiens, UniProt P37288)
- Construct: expressed in transfected cells; host or cells: HEK293 cells, transiently transfected; membranes prepared
- Sequence (P37288 whole entry): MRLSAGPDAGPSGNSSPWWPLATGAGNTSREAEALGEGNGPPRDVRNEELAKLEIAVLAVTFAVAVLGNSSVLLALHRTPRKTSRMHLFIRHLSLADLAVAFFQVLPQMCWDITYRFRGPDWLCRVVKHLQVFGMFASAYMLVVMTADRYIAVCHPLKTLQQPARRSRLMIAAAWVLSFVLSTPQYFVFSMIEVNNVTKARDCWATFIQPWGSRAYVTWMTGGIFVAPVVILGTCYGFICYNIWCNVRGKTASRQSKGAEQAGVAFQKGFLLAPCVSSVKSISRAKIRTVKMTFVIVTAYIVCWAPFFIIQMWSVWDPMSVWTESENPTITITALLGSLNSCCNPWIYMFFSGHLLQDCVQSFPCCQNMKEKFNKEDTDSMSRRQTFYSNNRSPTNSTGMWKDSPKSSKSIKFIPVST
- Assay Name: human V1a receptor binding (3H-Vasopressin SPA, membranes of transfected HEK293 cells)
Recorded Endpoint: pKi
Quick note: pKi means taking -log10 of the concentration in moles per liter.

Reference set, count: 5
CC(=O)N(C)CCn1cc(C(=O)N2CCN(c3ccccc3F)CC2)c2ccc(Cl)cc21 = 7.82
CN(CCn1cc(C(=O)N2CCN(c3ccccc3F)CC2)c2ccc(Cl)cc21)S(C)(=O)=O = 7.77
CNC(=O)Cn1cc(C(=O)N2CCN(c3ccccc3F)CC2)c2ccc(Cl)cc21 = 8.10
CN(C)C(=O)Cn1cc(C(=O)N2CCC(c3ccncc3)CC2)c2ccc(Cl)cc21 = 8.00
CN1CCN(C(=O)Cn2cc(C(=O)N3CCC(c4cccc5c4OCC5)CC3)c3ccc(Cl)cc32)CC1 = 8.30

Form entry - test system: human V1a receptor (Homo sapiens, UniProt P37288); read-out: pKi; molecule: CN(C)C(=O)Cn1cc(C(=O)N2CCC(c3ccccc3OC(F)(F)F)CC2)c2ccc(Cl)cc21
7.89

Form entry - test system: human V1a receptor (Homo sapiens, UniProt P37288); read-out: pKi; molecule: CN(C)C(=O)Cn1cc(C(=O)N2CCN(c3ccc(F)cc3F)CC2)c2ccc(Cl)cc21
8.00

Form entry - test system: human V1a receptor (Homo sapiens, UniProt P37288); read-out: pKi; molecule: O=C(c1cn(C[C@H]2CCCN2)c2cc(Cl)ccc12)N1CCN(c2ccccc2F)CC1
7.80

Origin of values: patent US7781436B2
